Ref: patent US20200239570A1

Biological target: T1, recombinant human PD-1 Fc chimera (human, UniProt Q15116 25-167)
T1 construct: Bought (R&D 1086-PD); Labelled with europium cryptate in the PD-L2 HTRF assay; also called human PD-1 (R&D Systems cat no. 1086-PD); human PD-1-huFc; not shown: human Fc of the bought chimera
T1 sequence (Q15116 25-167, change not shown): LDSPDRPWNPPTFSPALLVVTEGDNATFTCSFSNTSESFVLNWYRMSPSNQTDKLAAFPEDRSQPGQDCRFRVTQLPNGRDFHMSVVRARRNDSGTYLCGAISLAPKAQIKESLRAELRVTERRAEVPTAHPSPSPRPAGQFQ
Experiment: HTRF binding assay, His-tagged VH on 2 nM recombinant PD-1
Protocol: Purified VH were tested for their ability to bind to human PD-1 (R&D Systems cat no. 1086-PD), cynomolgus PD-1 (Acro Biosystems cat no. PD1-C5254) and mouse PD1 (R&D Systems cat no. 1021-PD) in an HTRF Binding assay format. All reagents and serially diluted VH were prepared in assay buffer containing PBS, 0.1% BSA and 0.4M Potassium Fluoride. […] Time-resolved fluorescent emission at 620 nm and 665 nm was measured following excitation at 337 nm on the BMG PHERAstar plate reader. […]
reported.property: log10 of EC50 (log10 of the value in nM)
Would you kindly interpret these values as log10 of EC50 expressed in nM?

Data request: # lookup: log10 of EC50 of VH single domain antibody 1.2 (VHH, human VH single domain antibody) VHH: EVQLVESGGGLVQPGRSLRLSCAASGFTFDDYAMHWVRQAPGKDLEWVSGISWNGGSMGYAASVKGRFTISRDNAKNSLYLQMNSLRAEDTALYYCVKDKGPGLIGSTADYYGLDVWGQGTTVTVSS
Data returned: -0.05

Data request: I am curious: what log10 of EC50 value has been reported for Humabody VH 1.39 (VHH, human VH single domain antibody) VHH: EVQLVESGGGLVQPGRSLRLSCAASGFTFDDYALHWVRQAPGKDLEWVSGISWNGGSYGYADSVKGRFTISRDNAKNSLYLQMNSLRAEDTALYYCVREKGPGLTGSTADYYGLDAWGQGTMVTVSS ?
Data returned: 0.41

Data request: Quick check: log10 of EC50 of Humabody VH 2.12 (VHH, human VH single domain antibody) VHH: EVQLVESGGGVVRPGGSLRLSCAASGFTFDDYAMSWVRQAPGKGLEWVSGITWNAGSTGYADSVKGRFTISRDNAKNSLYLQMNSLRAEDTALYYCVRDKYSYAWSYDDFDIWGQGTMVTVSS ?
Data returned: 1.11

Data request: Quick one: log10 of EC50 of VH single domain antibody 1.1 (VHH, human VH single domain antibody (Humabody), purified through its C-terminal His tag; also called Humabody 1.1; clone 1.1) VHH: EVQLLESGGGSVQPGRSLRLSCAASGFTFDDHAMHWVRQAPGKGLEWVSGISWNSGSMGYADSVKDRFTISRDNAKSSLYLQMNSLRAEDTALYYCVREKGPGLTGSTADYYGLDVWGQGTMVTVSS ?
Data returned: -0.30

Data request: log10 of EC50 for VH single domain antibody 2.1 (VHH, human VH single domain antibody; also called Humabody VH 2.1; clone 2.1) VHH: EVQLVESGGGVVRPGGSLRLSCAASGFTFDDYAMSWVRQAPGKGLEWVSGITWNGGSTGYADSVKDRFTISRDNAKNSLYLQMNSLRAEDTALYYCVRDKYSYAWSYDGFDIWGQGTMVTVSS ?
Data returned: 0.52
